Taken from patent US12448363B2.

Kindly supply the reported IC50 values for the records listed here.

Form field: IC50 recorded for C=CC(=O)N1CCCc2c(cccc2-c2c(F)cc(C(N)=O)c3[nH]c(C)c(Cl)c23)C1 (single isomer, unassigned) [Compound 25c] with BTK (Homo sapiens) (enter value)
≥ 100 nM

Recorded IC50 for C=CC(=O)N1CCC2CCN(c3c(F)cc(C(N)=O)c4[nH]c(C)c(C)c34)CC21 (single isomer, unassigned) [Compound 32a] with BTK (Homo sapiens), please?
10 to 100 nM

Request body: readout IC50, system BTK (Homo sapiens), query CC#CC(=O)N1CCC[C@H](c2c(F)cc(C(N)=O)c3[nH]c(C)c(Cl)c23)C1 [Compound 17] . Return the value.
≥ 100 nM

Find the measured IC50: item CC#CC(=O)N1CCC[C@@H](c2c(F)cc(C(N)=O)c3[nH]c(C)c(Cl)c23)C1 [Compound 18] , target or system BTK (Homo sapiens).
≥ 100 nM

Param readout= IC50; system= BTK (Homo sapiens); entry= C=CC(=O)N1CCC2CCN(c3c(F)cc(C(N)=O)c4[nH]c(C)c(C)c34)CC21 (single isomer, unassigned) [Compound 32b] ; returns value.
10 to 100 nM

API: value(readout=IC50, system=BTK (Homo sapiens)) for record C=CC(=O)N1CCc2c(-c3c(F)cc(C(N)=O)c4[nH]c(C)c(Cl)c34)cccc2C1C (racemic) [Compound 22a]
< 10 nM

Item C=CC(=O)N1CCc2c(cccc2-c2c(F)cc(C(N)=O)c3[nH]c(C)c(F)c23)C1 (atropisomer, axis not shown) [Compound 20f] with BTK (Homo sapiens) - IC50?
≥ 100 nM

Give recorded IC50 with BTK (Homo sapiens) for the following compound: C=CC(=O)N1CCCc2c(cccc2-c2c(F)cc(C(N)=O)c3[nH]c(C)c(F)c23)C1 [Compound 25e]
Sequence (Q06187 whole entry): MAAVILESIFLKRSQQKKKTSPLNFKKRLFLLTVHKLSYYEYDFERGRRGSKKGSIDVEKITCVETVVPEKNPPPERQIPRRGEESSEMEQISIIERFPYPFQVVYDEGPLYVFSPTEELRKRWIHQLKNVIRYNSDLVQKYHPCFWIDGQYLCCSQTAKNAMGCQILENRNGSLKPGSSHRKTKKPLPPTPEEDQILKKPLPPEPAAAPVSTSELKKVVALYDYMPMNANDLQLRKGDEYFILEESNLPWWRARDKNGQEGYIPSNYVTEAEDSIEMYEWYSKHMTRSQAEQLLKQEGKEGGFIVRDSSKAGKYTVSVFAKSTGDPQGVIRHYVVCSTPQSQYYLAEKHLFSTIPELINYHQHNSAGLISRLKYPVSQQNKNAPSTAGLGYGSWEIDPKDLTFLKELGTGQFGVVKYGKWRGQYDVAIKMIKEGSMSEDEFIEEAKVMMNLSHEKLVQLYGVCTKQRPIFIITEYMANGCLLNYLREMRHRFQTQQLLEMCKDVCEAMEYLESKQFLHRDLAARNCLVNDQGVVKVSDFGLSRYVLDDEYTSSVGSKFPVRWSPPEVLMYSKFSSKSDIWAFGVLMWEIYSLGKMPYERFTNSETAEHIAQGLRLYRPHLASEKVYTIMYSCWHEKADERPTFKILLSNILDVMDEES
10 to 100 nM

State its IC50 on BTK (Homo sapiens): C=CC(=O)N1CCCc2c(cccc2-c2c(F)cc(C(N)=O)c3[nH]c(C)c(Cl)c23)C1 (single isomer, unassigned) [Compound 25d]
10 to 100 nM

Query for BTK (Homo sapiens): what IC50 does the record show for C=CC(=O)N1CCCC(c2c(F)cc(C(N)=O)c3[nH]c(C)c(Cl)c23)C1 (stereo not drawn) [Compound 2] ?
< 10 nM

Item C=CC(=O)N1CCC[C@@H](c2c(F)c(F)c(C(N)=O)c3[nH]c(C)c(F)c23)C1 [Compound 6b] with BTK (Homo sapiens) - IC50?
< 10 nM

For BTK (Homo sapiens), provide IC50 of C=CC(=O)N[C@H]1CN(c2c(F)cc(C(N)=O)c3[nH]c(C)c(C)c23)CC[C@@H]1F [Compound 30] please.
10 to 100 nM

Request: IC50, test system BTK (Homo sapiens), entry C#CC(=O)N1CCc2c(cccc2-c2c(F)cc(C(N)=O)c3[nH]c(C)c(C)c23)C1 [Compound 20j]
< 10 nM

Enter reported IC50 observed with BTK (Homo sapiens) for C=CC(=O)N1CCc2c(cccc2-c2c(F)cc(C(N)=O)c3[nH]c(C)c(C#N)c23)C1 (atropisomer, axis not shown) [Compound 20h]
≥ 100 nM

Param readout= IC50; system= BTK (Homo sapiens); entry= C=CC(=O)N1Cc2cccc(-c3c(F)cc(C(N)=O)c4[nH]c(C)cc34)c2C2(CC2)C1 [Compound 24b] ; returns value.
≥ 100 nM

Kindly state the measured IC50 obtained for C=CC(=O)N1CCc2c(cccc2-c2c(F)cc(C(N)=O)c3[nH]c(C)c(C#N)c23)C1 [Compound 20g] with BTK (Homo sapiens).
< 10 nM

Request - read-out IC50 | tested on BTK (Homo sapiens) | compound C=CC(=O)N1CCc2c(-c3c(F)cc(C(N)=O)c4[nH]c(C)c(Cl)c34)cccc2[C@@H]1C (single isomer, unassigned) [Compound 22c]
≥ 100 nM

Enter reported IC50 observed with BTK (Homo sapiens) for C=CC(=O)N1CCCc2c(cccc2-c2c(F)cc(C(N)=O)c3[nH]c(C)cc23)C1 [Compound 25b]
10 to 100 nM

# get_value(readout= IC50, system= BTK (Homo sapiens)) for C=CC(=O)N1Cc2cccc(-c3c(F)cc(C(N)=O)c4[nH]c(C)c(Cl)c34)c2C2(CC2)C1 (single isomer, unassigned) [Compound 24c]
10 to 100 nM

Short answer please: IC50, BTK (Homo sapiens), entry C=CC(=O)N1CCC=C(c2c(F)c(F)c(C(N)=O)c3[nH]c(C)c(Cl)c23)C1 [Compound 4]
< 10 nM

Value wanted: IC50 (BTK (Homo sapiens)) of entry C=CC(=O)N1CCC=C(c2c(F)cc(C(N)=O)c3[nH]c(C)c(Cl)c23)C1 [Compound 1]
< 10 nM

For BTK (Homo sapiens), provide IC50 of C=CC(=O)N1CCc2c(cccc2-c2c(F)cc(C(N)=O)c3[nH]c(C)c(C#N)c23)C1 (atropisomer, axis not shown) [Compound 20i] please.
< 10 nM

Recall the recorded IC50 for C=CC(=O)N1CCc2c(cccc2-c2c(F)c(F)c(C(N)=O)c3[nH]c(C)c(F)c23)C1 [Compound 21d] with BTK (Homo sapiens) and state it.
10 to 100 nM

State its IC50 on BTK (Homo sapiens): C=CC(=O)N1CCc2c(cccc2-c2c(F)c(F)c(C(N)=O)c3[nH]c(C)c(Cl)c23)C1 (atropisomer, axis not shown) [Compound 21c]
≥ 100 nM

Field: IC50 (BTK (Homo sapiens)). Entry: C=CC(=O)N1C[C@H]2CCN(c3c(F)cc(C(N)=O)c4[nH]c(C)c(Cl)c34)C[C@@H]2C1 (racemic) [Compound 39]
≥ 100 nM

Give IC50 (BTK (Homo sapiens)) of the following compound: C=CC(=O)N1CCc2c(cccc2-c2c(F)cc(C(N)=O)c3[nH]c(C)c(Cl)c23)C1 [Compound 20a]
< 10 nM

Notebook entry, BTK (Homo sapiens) assay: IC50 of C=CC(=O)N[C@H]1CN(c2c(F)cc(C(N)=O)c3[nH]c(C)c(C)c23)CC[C@H]1F [Compound 31] = ?
10 to 100 nM

GET /values?readout=IC50&system=BTK (Homo sapiens)&item= C=CC(=O)N1CCc2c(cccc2-c2c(F)cc(C(N)=O)c3[nH]c(C)c(Cl)c23)C1 (single isomer, unassigned) [Compound 20b]
< 10 nM

Give IC50 (BTK (Homo sapiens)) of the following compound: C=CC(=O)N1CCc2c(-c3c(F)cc(C(N)=O)c4[nH]c(C)c(Cl)c34)cccc2[C@@H]1C (single isomer, unassigned) [Compound 22d]
≥ 100 nM

Field: IC50 (BTK (Homo sapiens)). Entry: CC#CC(=O)N1CCCC2CN(c3c(F)cc(C(N)=O)c4[nH]c(C)c(Cl)c34)CC21 (stereo not drawn) [Compound 40]
< 10 nM
